- target: cellular IDO1 in HeLa cells (Homo sapiens, UniProt P14902)
- Construct: endogenous in cells; host or cells: HeLa cells (American Type Tissue Culture Collection), induced with human recombinant IFN-γ
- Sequence (P14902 whole entry): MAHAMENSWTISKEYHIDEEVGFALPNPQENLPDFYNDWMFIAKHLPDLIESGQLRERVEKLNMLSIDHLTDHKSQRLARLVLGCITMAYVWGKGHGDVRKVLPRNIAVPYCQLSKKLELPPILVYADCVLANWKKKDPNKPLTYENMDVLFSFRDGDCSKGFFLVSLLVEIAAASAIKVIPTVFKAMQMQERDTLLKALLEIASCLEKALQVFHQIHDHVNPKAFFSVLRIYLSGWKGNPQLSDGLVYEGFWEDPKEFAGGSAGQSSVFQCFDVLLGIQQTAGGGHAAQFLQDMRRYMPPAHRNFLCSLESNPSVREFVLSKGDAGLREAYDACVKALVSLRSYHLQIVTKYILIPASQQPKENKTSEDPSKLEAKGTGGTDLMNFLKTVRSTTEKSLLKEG
- assay.info: HeLa cell-based IDO1 Kyn (kynurenine) production assay
- condition.description: Table 2, 8-substituted imidazo[1,5-a]pyridines, IFN-γ 100 ng/mL, 48 hours
Measured EC50 accompanies every entry in the list below.
Numeric answer only, unit µM assumed.

Check out these entries, answers already filled in.
Supply reported EC50 belonging to this compound: OC(c1c(Cl)ccn2cncc12)C1CC=CCC1 (stereo not shown)
4.58

Supply reported EC50 belonging to this compound: CC(C)c1ccn2cncc2c1[C@@H](O)[C@H]1CC[C@@H](O)CC1 (single isomer, unassigned) [Example B121c]
1.67

Then this compound:
Supply reported EC50 belonging to this compound: CC(=O)N1CCCC(C(O)c2c(C3CC3)ccn3cncc23)C1 (single isomer, unassigned) [Example B133b]
6.81
